biological target: Cytochrome P450 1A2 (Homo sapiens) (UniProt P05177); assay: Cytochrome panel assay with activity outcomes; details: recombinant CYP, pro-luciferin dealkylation, luminescence, p450-cyp1a2; series mostly up to 57.1 µM; as to activity, negative = inhibition: % is scaled to controls: 0 for no effect and ±100 for the full control effect
Sequence (P05177 whole entry, looked up): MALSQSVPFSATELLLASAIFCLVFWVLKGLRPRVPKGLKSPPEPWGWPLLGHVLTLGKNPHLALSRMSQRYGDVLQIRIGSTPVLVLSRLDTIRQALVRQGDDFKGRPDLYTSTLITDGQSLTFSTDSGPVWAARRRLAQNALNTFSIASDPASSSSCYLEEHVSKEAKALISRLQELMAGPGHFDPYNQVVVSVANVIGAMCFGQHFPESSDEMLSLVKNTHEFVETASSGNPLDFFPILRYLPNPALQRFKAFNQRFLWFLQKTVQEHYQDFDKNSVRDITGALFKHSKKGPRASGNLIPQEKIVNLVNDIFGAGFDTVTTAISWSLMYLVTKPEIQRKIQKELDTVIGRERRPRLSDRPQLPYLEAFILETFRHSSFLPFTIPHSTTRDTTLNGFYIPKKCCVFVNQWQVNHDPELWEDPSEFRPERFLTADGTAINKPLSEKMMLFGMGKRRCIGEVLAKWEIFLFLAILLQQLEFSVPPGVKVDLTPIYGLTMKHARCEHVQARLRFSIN
About 5,700 (36%) of roughly 16,000 compounds were called active. About 24% were inconclusive and are not listed. Some of the results follow.
// activity, negative = inhibition lookup, one value per entry

Completed entries (count: 4):
CC(C)(C)C(=O)[C@H]([C@@H](c1ccccc1)N1CCOCC1)N1CCOCC1: -6.91% [at 11.4 µM] (inactive)
O=C1[C@@H]2[C@@H]3C=C[C@H]([C@@H]2C(=O)N1CN1CCSCC1)[C@@H]1[C@@H]2C(=O)N(CN4CCSCC4)C(=O)[C@@H]2[C@H]31: -13.4% [at 11.4 µM] (inactive)
Cc1ccc(N2CCN(CCC(=O)O)CC2)cc1: -8.97% [at 11.4 µM] (inactive)
CN(CC(=O)O)Cc1c(O)c(Cl)cc(Cl)c1Cl: -0.983% [at 2.29 µM] (inactive)

// next entry
[ask] Return value of activity, negative = inhibition for input COc1ccc(O[C@H]2C=C[C@@H](c3ccccc3)O[C@@H]2CO/N=C\[C@@H](C)[C@H](OCc2ccccc2)C(C)C)cc1 , no commentary.
[reply] -3.11% [at 11.4 µM] (inactive)

----------
molecular target: Cytochrome P450 1A2 (Homo sapiens); test: Cytochrome panel assay with activity outcomes; settings: recombinant CYP, pro-luciferin dealkylation, luminescence, p450-cyp1a2; series mostly up to 57.1 µM
Among all 16,000 compounds or so, about 5,700 (36%) were called active. Another 24% or so got no clear call; they are omitted. The call rests on the fitted dose curve; in most records, active means well fitted curve in the direction sought with a large enough effect; inconclusive means small, poorly fitted or top-dose-only effect, or effect the other way; inactive means no such curve, though single readings can be large or run the other way. The list shows a part of the results.
Answer with one of the outcomes active, inactive

Examples with answers:
COc1ccc(C(=O)Nc2ccc(C(=O)OCC(=O)c3ccccc3)cc2)cc1: inactive
COc1ccc(C2C(C(=O)N3CCN(C)CC3)c3ccccc3C(=O)N2C2CCCCC2)cc1 (configuration not stated): inactive
Cn1cccc1C(=O)N1CCC[C@@]2(CCN(Cc3ccc(C#N)cc3)C2)C1: inactive
CCC(=O)Nc1ccccc1C(=O)OCC(=O)c1ccccc1: active
O=C(O)CCCc1ccc2ccc3ccccc3c2c1: active

[ask] Dear colleague, could you share the recorded outcome for COc1ccc(S(=O)(=O)N2CCc3ccccc3C2)cc1OC when you have a moment?
[reply] inactive

[ask] // return assay outcome for NNC(=O)CCc1ccc2ccc3ccccc3c2c1
[reply] active

[ask] // param item: COC(=O)[C@@]1(Cc2ccc(F)cc2)[C@H]2c3cc(C(=O)N4CCCC4)n(CCc4c[nH]c5ccccc45)c3C[C@H]2CN1C(=O)c1ccccc1 ; yields the recorded call
[reply] inactive

[ask] Call for entry COc1ccc(Oc2ncc3nc(-c4cccc(C#N)c4)c(=O)n(Cc4cccc(OC)c4)c3n2)cc1 :
[reply] inactive

[ask] Status in this test for O=C(CN1CCc2ccccc21)NC(=O)NCc1ccco1 ?
[reply] active

[ask] Could you please tell me the result logged for Cn1c(=O)c(-c2cccc(C#N)c2)nc2cnc(Oc3ccccc3)nc21 in this assay?
[reply] active

[ask] What was the test verdict on Cc1cc(-c2n[nH]c(=S)o2)c(C)n1-c1ccccc1 ?
[reply] active

[ask] Please state the recorded outcome for this compound: Cc1ccc(Cl)c(Nc2ccccc2C(=O)O)c1Cl
[reply] inactive
